Test: Leishmania major promastigote growth inhibition, primary screen (AID 1063);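 note: promastigotes grown with compound for 44 hours at 28 °C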
Details: Leishmania major promastigotes, resazurin fluorescence viability; at 10 µM
The campaign covered roughly 200,000 compounds. About 18,000 (9%) were called active. Cut-off read from the data, not from the text of the source: active = inhibition above about 50%; inactive = the rest. Only a selection was taken, and actives are over-represented in it overall.
Please reply with one of these outcomes: active, inactive

Worked set:
What did this assay record as the result for CCOCCCNS(=O)(=O)Cc1ccccc1 ?
inactive

What did this assay record as the result for O=c1[nH]n(-c2cccc(Cl)c2)c2ncccc12 ?
inactive

Others:
What did this assay record as the result for CCOC(=O)N1CCC(=NNC(N)=O)CC1 ?
inactive

What did this assay record as the result for CCOC(=O)Cc1ncccc1C(=O)Nc1ccc(OC(F)(F)F)cc1 ?
inactive

What did this assay record as the result for O=C1/C(=C\c2cccnc2)CN(Cc2ccccc2)C/C1=C\c1cccnc1 ?
active

What did this assay record as the result for Clc1ccc(CN2CCN(/N=C/c3cccnc3)CC2)cc1 ?
inactive

---

Experiment: Leishmania major promastigote growth inhibition, primary screen (AID 1063);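 note: promastigotes grown with compound for 44 hours at 28 °C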
Details: Leishmania major promastigotes, resazurin fluorescence viability; at 10 µM
About 18,000 (9%) of roughly 200,000 compounds were called active. Cut-off read from the data, not from the text of the source: active = inhibition above about 50%; inactive = the rest. What follows is part of a selection rich in actives, with near analogues and random picks from the rest.
Please reply with one of these outcomes: active, inactive

What did this assay record as the result for CC1=C(C(=O)Nc2cc(C)ccn2)C(c2cnn(C)c2)C2=C(CC(c3ccccc3)CC2=O)N1 (stereo unspecified) ?
inactive

What did this assay record as the result for COc1cccc(/C=N\NC(=O)C2=NNC(=O)C2C)c1O (stereo unspecified) ?
inactive

What did this assay record as the result for CC(C)(CNC(=O)c1ccc(Cl)c(S(=O)(=O)N2CCc3ccccc3C2)c1)N1CCOCC1 ?
active

What did this assay record as the result for O=C(O)Cc1ccc(NCc2ccccc2Cl)cc1 ?
inactive

What did this assay record as the result for O=C(NCCSCc1ccccc1)c1ccc(Cl)c(S(=O)(=O)N2CCOCC2)c1 ?
inactive

What did this assay record as the result for CC(=O)Cc1nsc(NC(=O)c2ccc(Cl)cc2Cl)n1 ?
inactive

What did this assay record as the result for CCC(CC)C(=O)N1CC(=O)Nc2ccc(Br)cc2C1c1ccccc1 (stereo unspecified) ?
inactive

What did this assay record as the result for O=C(c1ccc(S(=O)(=O)N2CCOCC2)cc1)N1CCN(c2ccccc2)CC1 ?
inactive

Others:
What did this assay record as the result for COc1ccc(C(=O)Nc2ccccc2C(=O)N/N=C/c2ccccc2OC)cc1 ?
inactive

What did this assay record as the result for Cc1ccc2c(c1)C(c1ccccc1)N(C(=O)c1ccc(S(=O)(=O)N3CCOCC3)cc1)CC(=O)N2 (stereo unspecified) ?
active

What did this assay record as the result for Cc1cc(C)nc(Nc2ncn[nH]2)n1 ?
inactive

---

Listed here: items and their measured inhibition.
Test: Leishmania major promastigote growth inhibition, primary screen (AID 1063);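 note: promastigotes grown with compound for 44 hours at 28 °C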
Conditions: Leishmania major promastigotes, resazurin fluorescence viability; at 10 µM; stronger effect = higher value
In all, about 200,000 compounds went through this assay and about 18,000 (9%) were called active. The list comes from a sample in which actives are over-represented; it also holds close analogues and randomly drawn compounds.
# number only, unit % dropped from output

Worked set:
Answer with the recorded inhibition of Cc1c(/C=N\NC(=O)c2cc3ccccc3o2)c2ccccc2n1C only.
9.72

Answer with the recorded inhibition of Cc1cc(C)n2nc(SCC(=O)NC(=O)NCc3ccco3)nc2n1 only.
-4.34

Answer with the recorded inhibition of CCn1c2ccccc2c2cc(NC(=O)COC(=O)c3ccccc3Br)ccc21 only.
-2.86

Answer with the recorded inhibition of CCn1c2ccccc2c2cc(NC(=O)COC(=O)c3cc(S(=O)(=O)N4CCCCC4)ccc3Cl)ccc21 only.
73.8

Answer with the recorded inhibition of O=C(COC(=O)c1cc(S(=O)(=O)N2CCCCC2)ccc1Cl)NCc1ccco1 only.
7.75

Answer with the recorded inhibition of CCCc1cc(=O)[nH]c(SCC(=O)OCc2ccccc2)n1 only.
1.09

Others:
Answer with the recorded inhibition of CC1CCCCN1S(=O)(=O)c1ccc(S(=O)(=O)N(CC(=O)Nc2ccccc2)Cc2cccs2)cc1 (stereo not given) only.
-0.93

Answer with the recorded inhibition of COc1c(C)cc(C(=O)C2CCCN(S(=O)(=O)c3c(C)noc3C)C2)cc1C (stereo not given) only.
6.97

Answer with the recorded inhibition of COC(=O)C1=C(C)N(C)C(=O)NC1c1ccc([N+](=O)[O-])o1 (stereo not given) only.
15.2

Answer with the recorded inhibition of CN1CCN(/N=C/c2ccc(-c3ccc([N+](=O)[O-])cc3)o2)CC1 only.
-3.39

Measured values drawn from PubChem BioAssay AID1063 for this set.
